Overview of recorded EC50 for various compounds
# Tested on: SARS-CoV (strain Urbani)
# assay_remarks: microbe, parasite or virus in culture
# Assay type: cell-based
# condition_label: Severe acute respiratory syndrome coronavirus, Vero 76, read-out: Neutral red uptake assay EC50
Where a name gives a salt, the structure may show the parent alone.
recorded_endpoint: EC50 (µM)

# compound, recorded_endpoint, numeric_value
measured = [
    ("CC(=O)c1ccc2c(c1)N(CCCN1CCN(CCO)CC1)c1ccccc1S2 [Acetophenazine maleate]", "EC50", 6.6),
    ("CCN(CC)C(C)CN1c2ccccc2Sc2ccccc21 (stereo not drawn)", "EC50", 30.5),
    ("CCC(=O)c1ccc2c(c1)N(CCCN(C)C)c1ccccc1S2 [Propionylpromazine·HCl]", "EC50", 24.3),
]
